# credit: ChEMBL document CHEMBL1146924

Study target: Human immunodeficiency virus type 1 integrase (Human immunodeficiency virus 1, UniProt Q7ZJM1)
Sequence (Q7ZJM1 whole entry): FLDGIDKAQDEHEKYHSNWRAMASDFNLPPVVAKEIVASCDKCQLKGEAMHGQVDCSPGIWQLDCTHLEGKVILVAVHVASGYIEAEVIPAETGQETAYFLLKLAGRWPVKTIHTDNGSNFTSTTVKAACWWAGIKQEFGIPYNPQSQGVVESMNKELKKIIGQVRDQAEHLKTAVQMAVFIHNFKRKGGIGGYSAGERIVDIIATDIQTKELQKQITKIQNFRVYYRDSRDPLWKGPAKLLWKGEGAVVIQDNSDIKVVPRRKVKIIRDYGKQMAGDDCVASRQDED
Assay: Inhibition of HIV1 integrase strand transfer step
Metric: IC50 (µM)
The answer is to be given in µM; state only the numeric part.

Before answering, review these 3 worked examples.
>>> number("O=C(O)C(=O)/C=C(/O)c1nc2c(=O)n(Cc3ccccc3)cnc2n1Cc1ccccc1")
4.1
>>> number("O=C(O)C(=O)/C=C(/O)c1nc2cncnc2n1Cc1ccccc1")
10
>>> number("O=C(O)C(=O)/C=C(\\O)c1nc2c(ncn2Cc2ccccc2)c(=O)n1Cc1ccccc1")
2.7

Proceed to the following item.
Request: Fill in reported IC50 for this entry: O=C(O)C(=O)/C=C(\O)c1ncnc2c1ncn2Cc1ccccc1
Result: 790
